Where these numbers come from: BigSolDB 2.1

settings: in DMF, 298.15 K
READOUT LABEL: solubility (mole fraction)

| ENTRY SMILES | REPORTED RESULT |
| --- | --- |
| CCS(=O)(=O)c1cccnc1S(=O)(=O)NC(=O)Nc1nc(OC)cc(OC)n1 | 0.000125 |

====

details: in ethanol, 288.15 K

| ENTRY SMILES | solubility (mole fraction) |
| --- | --- |
| CCS(=O)(=O)c1cccnc1S(=O)(=O)NC(=O)Nc1nc(OC)cc(OC)n1 | 2.82e-05 |

====

conditions: in methanol, 293.15 K

| ENTRY SMILES | solubility (mole fraction) |
| --- | --- |
| CCS(=O)(=O)c1cccnc1S(=O)(=O)NC(=O)Nc1nc(OC)cc(OC)n1 | 3.96e-05 |

====

settings: in DMF, 323.15 K
READOUT LABEL: solubility (mole fraction)

| ENTRY SMILES | READOUT LABEL | REPORTED RESULT |
| --- | --- | --- |
| CCS(=O)(=O)c1cccnc1S(=O)(=O)NC(=O)Nc1nc(OC)cc(OC)n1 | solubility (mole fraction) | 0.000262 |

====

conditions: in water, 308.15 K

| ENTRY SMILES | solubility (mole fraction) |
| --- | --- |
| CCS(=O)(=O)c1cccnc1S(=O)(=O)NC(=O)Nc1nc(OC)cc(OC)n1 | 6.77e-07 |

====

conditions: in ethanol, 313.15 K

| ENTRY SMILES | solubility (mole fraction) |
| --- | --- |
| CCS(=O)(=O)c1cccnc1S(=O)(=O)NC(=O)Nc1nc(OC)cc(OC)n1 | 6.36e-05 |

====

settings: in water, 303.15 K

| ENTRY SMILES | solubility (mole fraction) |
| --- | --- |
| CCS(=O)(=O)c1cccnc1S(=O)(=O)NC(=O)Nc1nc(OC)cc(OC)n1 | 5.76e-07 |

====

settings: in DMF, 303.15 K

| ENTRY SMILES | solubility (mole fraction) |
| --- | --- |
| CCS(=O)(=O)c1cccnc1S(=O)(=O)NC(=O)Nc1nc(OC)cc(OC)n1 | 0.000148 |

====

details: in methanol, 313.15 K
READOUT LABEL: solubility (mole fraction)

| ENTRY SMILES | READOUT LABEL | REPORTED RESULT |
| --- | --- | --- |
| CCS(=O)(=O)c1cccnc1S(=O)(=O)NC(=O)Nc1nc(OC)cc(OC)n1 | solubility (mole fraction) | 7.48e-05 |

====

settings: in DMF, 313.15 K
READOUT LABEL: solubility (mole fraction)

| ENTRY SMILES | REPORTED RESULT |
| --- | --- |
| CCS(=O)(=O)c1cccnc1S(=O)(=O)NC(=O)Nc1nc(OC)cc(OC)n1 | 0.000199 |

====

settings: in methanol, 303.15 K
READOUT LABEL: solubility (mole fraction)

| ENTRY SMILES | REPORTED RESULT |
| --- | --- |
| CCS(=O)(=O)c1cccnc1S(=O)(=O)NC(=O)Nc1nc(OC)cc(OC)n1 | 5.5e-05 |

====

conditions: in ethylene glycol, 323.15 K

| ENTRY SMILES | solubility (mole fraction) |
| --- | --- |
| CCS(=O)(=O)c1cccnc1S(=O)(=O)NC(=O)Nc1nc(OC)cc(OC)n1 | 3.19e-05 |

====

conditions: in water, 293.15 K

| ENTRY SMILES | solubility (mole fraction) |
| --- | --- |
| CCS(=O)(=O)c1cccnc1S(=O)(=O)NC(=O)Nc1nc(OC)cc(OC)n1 | 4.13e-07 |

====

settings: in water, 283.15 K

| ENTRY SMILES | solubility (mole fraction) |
| --- | --- |
| CCS(=O)(=O)c1cccnc1S(=O)(=O)NC(=O)Nc1nc(OC)cc(OC)n1 | 2.82e-07 |

====

settings: in ethylene glycol, 298.15 K

| ENTRY SMILES | solubility (mole fraction) |
| --- | --- |
| CCS(=O)(=O)c1cccnc1S(=O)(=O)NC(=O)Nc1nc(OC)cc(OC)n1 | 1.53e-05 |

====

conditions: in ethylene glycol, 293.15 K

| ENTRY SMILES | solubility (mole fraction) |
| --- | --- |
| CCS(=O)(=O)c1cccnc1S(=O)(=O)NC(=O)Nc1nc(OC)cc(OC)n1 | 1.28e-05 |

====

settings: in DMF, 318.15 K

| ENTRY SMILES | solubility (mole fraction) |
| --- | --- |
| CCS(=O)(=O)c1cccnc1S(=O)(=O)NC(=O)Nc1nc(OC)cc(OC)n1 | 0.000228 |

====

settings: in ethanol, 278.15 K

| ENTRY SMILES | solubility (mole fraction) |
| --- | --- |
| CCS(=O)(=O)c1cccnc1S(=O)(=O)NC(=O)Nc1nc(OC)cc(OC)n1 | 1.91e-05 |

====

details: in methanol, 278.15 K

| ENTRY SMILES | solubility (mole fraction) |
| --- | --- |
| CCS(=O)(=O)c1cccnc1S(=O)(=O)NC(=O)Nc1nc(OC)cc(OC)n1 | 2.17e-05 |

====

conditions: in methanol, 298.15 K
READOUT LABEL: solubility (mole fraction)

| ENTRY SMILES | REPORTED RESULT |
| --- | --- |
| CCS(=O)(=O)c1cccnc1S(=O)(=O)NC(=O)Nc1nc(OC)cc(OC)n1 | 4.7e-05 |

====

conditions: in water, 318.15 K

| ENTRY SMILES | solubility (mole fraction) |
| --- | --- |
| CCS(=O)(=O)c1cccnc1S(=O)(=O)NC(=O)Nc1nc(OC)cc(OC)n1 | 8.96e-07 |

====

conditions: in ethanol, 283.15 K
READOUT LABEL: solubility (mole fraction)

| ENTRY SMILES | REPORTED RESULT |
| --- | --- |
| CCS(=O)(=O)c1cccnc1S(=O)(=O)NC(=O)Nc1nc(OC)cc(OC)n1 | 2.32e-05 |

====

conditions: in ethanol, 293.15 K
READOUT LABEL: solubility (mole fraction)

| ENTRY SMILES | REPORTED RESULT |
| --- | --- |
| CCS(=O)(=O)c1cccnc1S(=O)(=O)NC(=O)Nc1nc(OC)cc(OC)n1 | 3.4e-05 |

====

conditions: in ethanol, 308.15 K

| ENTRY SMILES | solubility (mole fraction) |
| --- | --- |
| CCS(=O)(=O)c1cccnc1S(=O)(=O)NC(=O)Nc1nc(OC)cc(OC)n1 | 5.52e-05 |

====

settings: in DMF, 293.15 K

| ENTRY SMILES | solubility (mole fraction) |
| --- | --- |
| CCS(=O)(=O)c1cccnc1S(=O)(=O)NC(=O)Nc1nc(OC)cc(OC)n1 | 0.000106 |

====

details: in ethylene glycol, 313.15 K

| ENTRY SMILES | solubility (mole fraction) |
| --- | --- |
| CCS(=O)(=O)c1cccnc1S(=O)(=O)NC(=O)Nc1nc(OC)cc(OC)n1 | 2.38e-05 |

====

details: in ethylene glycol, 303.15 K

| ENTRY SMILES | solubility (mole fraction) |
| --- | --- |
| CCS(=O)(=O)c1cccnc1S(=O)(=O)NC(=O)Nc1nc(OC)cc(OC)n1 | 1.79e-05 |

====

conditions: in ethylene glycol, 288.15 K
READOUT LABEL: solubility (mole fraction)

| ENTRY SMILES | REPORTED RESULT |
| --- | --- |
| CCS(=O)(=O)c1cccnc1S(=O)(=O)NC(=O)Nc1nc(OC)cc(OC)n1 | 1.07e-05 |

====

details: in methanol, 283.15 K
READOUT LABEL: solubility (mole fraction)

| ENTRY SMILES | READOUT LABEL | REPORTED RESULT |
| --- | --- | --- |
| CCS(=O)(=O)c1cccnc1S(=O)(=O)NC(=O)Nc1nc(OC)cc(OC)n1 | solubility (mole fraction) | 2.67e-05 |

====

conditions: in ethylene glycol, 278.15 K

| ENTRY SMILES | solubility (mole fraction) |
| --- | --- |
| CCS(=O)(=O)c1cccnc1S(=O)(=O)NC(=O)Nc1nc(OC)cc(OC)n1 | 7.03e-06 |

====

settings: in methanol, 323.15 K
READOUT LABEL: solubility (mole fraction)

| ENTRY SMILES | READOUT LABEL | REPORTED RESULT |
| --- | --- | --- |
| CCS(=O)(=O)c1cccnc1S(=O)(=O)NC(=O)Nc1nc(OC)cc(OC)n1 | solubility (mole fraction) | 9.85e-05 |
